assay: gradient 5% acetonitrile 3 min, to 50% in 2 min, to 85% in 15 min, held 3 min, 100 µL/min; details: column: Zorbax Extend-C18 2.1 x 50 mm; eluents: water / acetonitrile, 0.1% formic acid
propertyMeasured: RP-LC retention time (s)

compound=Cc1nnc(NC(=O)c2cccc(C(F)(F)F)c2)s1 readingunit=s reportedvalue=749
compound="COc1ccc(NC(=O)C2CCCN(c3ncnc4c3nc3n4CCCCC3)C2)c(OC)c1 (centres undefined)" readingunit=s reportedvalue=777
compound="COc1cc(-c2noc(C3CC(=O)N(c4ccc(C)c(C)c4)C3)n2)cc(OC)c1OC (centres undefined)" readingunit=s reportedvalue=990
compound="CC1Cc2cc(S(=O)(=O)CCC(=O)N3CCN(Cc4ccccc4)CC3)ccc2N1C(=O)C1CC1 (centres undefined)" readingunit=s reportedvalue=666
compound="CCN(CC)S(=O)(=O)c1ccc2c(c1)CC(C(=O)N1CCOCC1)N2C(C)=O (centres undefined)" readingunit=s reportedvalue=663
compound=COC(=O)c1ccc2c(=O)n(-c3ccc(OC)cc3)c(N3CCOCC3)nc2c1 readingunit=s reportedvalue=896
compound=O=C(CN1C(=O)CCCc2cc(S(=O)(=O)N3CCCC3)ccc21)NCc1ccc(F)cc1 readingunit=s reportedvalue=792

a. CNc1nc(Nc2ccccc2C)nc2ccccc12
b. O=C(c1ccc2c(c1)OCO2)N1CCCC1c1nc(-c2cccc(C(F)(F)F)c2)no1 (centres undefined)
# input Select the item whose RP-LC retention time value is smaller, choosing between a and b . Refer to your chosen item by its label in the answer.
# output a

Value source: the METLIN SMRT retention time set (Domingo-Almenara et al. 2019)
